Examples of binders with documented Fold IC50 increase relative to wild-type follow.
# subject of test: HIV-1 JR-CSF Env T202A (HIV-1 JR-CSF) (UniProt P20871)
# test method notes: cell-based or functional assay
measure: Fold IC50 increase relative to wild-type (fold)

>>> value_reported("PGT-135 (antibody, V domains shown) VH: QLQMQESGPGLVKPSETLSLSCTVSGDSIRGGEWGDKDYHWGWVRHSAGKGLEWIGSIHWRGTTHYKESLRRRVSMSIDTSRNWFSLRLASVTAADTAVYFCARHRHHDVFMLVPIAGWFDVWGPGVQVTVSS VL: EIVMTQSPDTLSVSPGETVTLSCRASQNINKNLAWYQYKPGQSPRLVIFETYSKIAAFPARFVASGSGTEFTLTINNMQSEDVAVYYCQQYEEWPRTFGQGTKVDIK")
1.8
>>> value_reported("PGT-125 (antibody, V domains shown) VH: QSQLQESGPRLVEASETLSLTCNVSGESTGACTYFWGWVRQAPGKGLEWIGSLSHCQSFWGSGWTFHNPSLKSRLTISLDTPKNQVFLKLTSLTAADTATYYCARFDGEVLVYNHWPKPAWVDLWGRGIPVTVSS VL: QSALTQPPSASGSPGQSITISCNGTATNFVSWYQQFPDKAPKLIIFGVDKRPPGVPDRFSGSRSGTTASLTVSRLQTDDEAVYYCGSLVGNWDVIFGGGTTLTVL")
0.8
>>> value_reported("PGT-123 (antibody, V domains shown) VH: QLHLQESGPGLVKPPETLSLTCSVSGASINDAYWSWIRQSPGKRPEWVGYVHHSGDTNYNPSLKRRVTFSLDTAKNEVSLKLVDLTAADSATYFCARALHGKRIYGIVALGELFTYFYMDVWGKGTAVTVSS VL: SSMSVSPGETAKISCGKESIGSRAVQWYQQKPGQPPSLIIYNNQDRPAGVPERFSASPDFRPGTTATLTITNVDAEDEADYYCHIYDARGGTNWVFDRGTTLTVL")
1.2
>>> value_reported("PGT-131 (antibody, V domains shown) VH: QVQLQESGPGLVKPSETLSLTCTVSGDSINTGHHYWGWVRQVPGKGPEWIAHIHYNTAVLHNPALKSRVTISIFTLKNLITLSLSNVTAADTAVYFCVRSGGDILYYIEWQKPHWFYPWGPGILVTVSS VL: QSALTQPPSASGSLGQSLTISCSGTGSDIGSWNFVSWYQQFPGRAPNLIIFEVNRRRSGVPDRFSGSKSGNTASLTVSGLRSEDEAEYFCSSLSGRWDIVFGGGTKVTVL")
2.7
>>> value_reported("PGT-128 (antibody, V domains shown) VH: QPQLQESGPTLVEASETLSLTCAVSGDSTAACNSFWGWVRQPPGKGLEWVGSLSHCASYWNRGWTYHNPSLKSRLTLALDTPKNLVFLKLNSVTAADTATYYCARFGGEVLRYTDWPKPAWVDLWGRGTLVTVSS VL: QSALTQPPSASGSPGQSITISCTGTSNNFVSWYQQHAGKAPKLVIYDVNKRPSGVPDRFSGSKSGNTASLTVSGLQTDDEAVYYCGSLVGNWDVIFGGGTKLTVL")
1.1
